Reported GI50 values for a set of compounds
tested on: RPE; test: IncuCyte live-cell imaging, antiproliferative effect; type: cell-based; conditions: 72 h, read-out: Cell GI50 72h

Record summary for Cc1cc(Nc2ccc(F)c(CC3(C(=O)N4CCC(CN5CCN(c6ccc(N7CCC(=O)NC7=O)cn6)CC5)CC4)CCN(Cc4cccc(Cl)c4F)CC3)n2)n[nH]1 : reported GI50 = 221 nM

GET /value?item= Cc1cc(Nc2nc(CC3(C(=O)O)CCN(C(=O)c4cccc(Cl)c4Cl)CC3)ccc2F)n[nH]1 [TAS-119, reference compound] &field=GI50 returns 250 nM

The compound listed as O=C(O)[C@]1(Cc2cccc(Nc3nccs3)n2)CC[C@@H](Oc2cccc(Cl)c2F)CC1 [MK-5108, reference compound] has a reported GI50 of 953 nM

// switching to the query compound
// recorded GI50 for Cc1cc(Nc2ccc(F)c(CC3(C(=O)N4CCC(F)(CN5CCN(c6ccc(N7CCC(=O)NC7=O)cn6)CC5)CC4)CCN(Cc4cccc(Cl)c4F)CC3)n2)n[nH]1 : 460 nM

----------
experiment: Metabolic stability in mouse liver microsomes (MLM); assay type: in vitro ADME, CD-1 mouse; details: CD-1
Label yes when microsomal CLint at 0.1 μM >= 700 µL/min/mg; otherwise no.

Query: Please tell me: is the compound O=C1CCC(N2C(=O)c3cccc(OCCOCCOCCOCCNC(=O)[C@]4(Cc5cccc(Nc6nccs6)n5)CC[C@@H](Oc5cccc(Cl)c5F)CC4)c3C2=O)C(=O)N1 (some centres unmarked) [SK2188, reference compound] at or over 700 µL/min/mg in terms of microsomal CLint at 0.1 μM?
Reply: yes

Query: Evaluate O=C1CCC(N2C(=O)c3ccc(OCCOCCNC(=O)[C@]4(Cc5cccc(Nc6nccs6)n5)CC[C@@H](Oc5cccc(Cl)c5F)CC4)cc3C2=O)C(=O)N1 (some centres unmarked) [SK3277, reference compound] : microsomal CLint at 0.1 μM at minimum 700 µL/min/mg?
Reply: yes

Query: hey, is microsomal CLint at 0.1 μM for this one >= 700 µL/min/mg? O=C1CCN(c2ccc(N3CCN(CC4CN(C(=O)[C@]5(Cc6cccc(Nc7nccs7)n6)CC[C@@H](Oc6cccc(Cl)c6F)CC5)C4)CC3)nc2)C(=O)N1 [PROTAC 23]
Reply: no

---
Query: Tell me whether microsomal CLint at 0.1 μM is at least 700 µL/min/mg here: O=C1CCC(Nc2ccc(N3CCN(C(=O)CNC(=O)[C@]4(Cc5cccc(Nc6nccs6)n5)CC[C@@H](Oc5cccc(Cl)c5F)CC4)CC3)cc2)C(=O)N1 (some centres unmarked) [PROTAC 14]
Reply: yes

----------
Reported pKi values for a set of compounds
biological target: AURKB (Homo sapiens)
Sequence (Q96GD4 whole entry): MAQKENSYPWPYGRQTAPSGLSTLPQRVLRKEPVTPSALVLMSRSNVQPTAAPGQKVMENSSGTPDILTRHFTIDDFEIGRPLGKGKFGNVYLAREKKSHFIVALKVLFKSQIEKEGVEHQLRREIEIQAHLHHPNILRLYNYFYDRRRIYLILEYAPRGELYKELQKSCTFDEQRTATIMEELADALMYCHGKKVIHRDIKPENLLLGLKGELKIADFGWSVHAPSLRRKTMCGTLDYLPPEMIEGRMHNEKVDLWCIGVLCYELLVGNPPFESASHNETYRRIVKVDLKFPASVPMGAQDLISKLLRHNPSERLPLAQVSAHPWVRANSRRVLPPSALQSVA
# pKi = -log10(concentration in molar units)

Case O=C1CCC(N2C(=O)c3cccc(OCCOCCOCCOCCNC(=O)[C@]4(Cc5cccc(Nc6nccs6)n5)CC[C@@H](Oc5cccc(Cl)c5F)CC4)c3C2=O)C(=O)N1 (stereo partly drawn) [SK2188, reference compound] , AURKB (Homo sapiens), pKi recorded as 5.25

Others:
Bench note, AURKB (Homo sapiens): entry Cc1cc(Nc2ccc(F)c(CC3(C(=O)N4CCC(CN5CCN(c6ccc(N7CCC(=O)NC7=O)cn6)CC5)CC4)CCN(Cc4cccc(Cl)c4F)CC3)n2)n[nH]1 [SK4454] , its pKi = 5.12

----------
Biological target: AURKA (Homo sapiens)
Sequence (O14965 1-403): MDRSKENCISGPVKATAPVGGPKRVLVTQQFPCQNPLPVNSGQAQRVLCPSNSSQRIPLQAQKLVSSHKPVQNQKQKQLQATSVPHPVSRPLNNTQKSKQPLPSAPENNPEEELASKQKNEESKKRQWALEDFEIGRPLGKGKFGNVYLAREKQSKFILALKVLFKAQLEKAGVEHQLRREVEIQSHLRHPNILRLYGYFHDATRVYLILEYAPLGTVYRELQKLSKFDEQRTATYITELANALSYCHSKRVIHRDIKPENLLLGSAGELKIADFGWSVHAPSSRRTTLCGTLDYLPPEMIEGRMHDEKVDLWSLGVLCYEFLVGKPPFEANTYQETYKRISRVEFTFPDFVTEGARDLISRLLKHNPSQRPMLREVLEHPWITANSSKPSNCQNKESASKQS
Assay: AURKA binding assay (KINOMEscan / KdELECT, Eurofins Discovery)
Design: purchased Eurofins Discovery
Conditions: Ki AURKB vs Ki AURKA
assayReadout: binding selectivity for AURKA over AURKB

# binding selectivity for AURKA over AURKB (molecule: Cc1cc(Nc2ccc(F)c(CC3(C(=O)N4CCC(F)(CN5CCN(c6ccc(N7CCC(=O)NC7=O)cn6)CC5)CC4)CCN(Cc4cccc(Cl)c4F)CC3)n2)n[nH]1 [SK5527] ) is more than 2000 fold

Notebook: O=C1CCC(N2C(=O)c3cccc(OCCOCCOCCOCCNC(=O)[C@]4(Cc5cccc(Nc6nccs6)n5)CC[C@@H](Oc5cccc(Cl)c5F)CC4)c3C2=O)C(=O)N1 (stereo partly shown) [SK2188, reference compound] , binding selectivity for AURKA over AURKB read as more than 2000 fold

Briefly, binding selectivity for AURKA over AURKB measured for Cc1cc(Nc2ccc(F)c(CC3(C(=O)N4CCC(CN5CCN(c6ccc(N7CCC(=O)NC7=O)cn6)CC5)CC4)CCN(Cc4cccc(Cl)c4F)CC3)n2)n[nH]1 [SK4454] : more than 2000 fold

Sure, the documented binding selectivity for AURKA over AURKB for O=C1CCN(c2ccc(N3CCN(CC4CCN(C(=O)[C@]5(Cc6cccc(Nc7nccs7)n6)CC[C@@H](Oc6cccc(Cl)c6F)CC5)CC4)CC3)nc2)C(=O)N1 [PROTAC 24] is more than 2000 fold

----------
Items are presented alongside their recorded half-life at 1 μM.
experiment: Plasma stability assay; format: in vitro ADME, CD-1 mouse; conditions: CD-1 mouse plasma, 1 μM, 37 °C; read-out: plasma t1/2
// units = h; emit number, no label

Entry O=C1CCC(N2C(=O)c3ccc(OCCOCCNC(=O)[C@]4(Cc5cccc(Nc6nccs6)n5)CC[C@@H](Oc5cccc(Cl)c5F)CC4)cc3C2=O)C(=O)N1 (some centres unmarked) [SK3277, reference compound] , half-life at 1 μM reported as 1.18

---
According to the records, this compound O=C1CCC(N2C(=O)c3cccc(OCCOCCOCCOCCNC(=O)[C@]4(Cc5cccc(Nc6nccs6)n5)CC[C@@H](Oc5cccc(Cl)c5F)CC4)c3C2=O)C(=O)N1 (some centres unmarked) [SK2188, reference compound] displays half-life at 1 μM of 1.12

----------
Molecular target: AURKA (Homo sapiens)
Sequence (O14965 1-403): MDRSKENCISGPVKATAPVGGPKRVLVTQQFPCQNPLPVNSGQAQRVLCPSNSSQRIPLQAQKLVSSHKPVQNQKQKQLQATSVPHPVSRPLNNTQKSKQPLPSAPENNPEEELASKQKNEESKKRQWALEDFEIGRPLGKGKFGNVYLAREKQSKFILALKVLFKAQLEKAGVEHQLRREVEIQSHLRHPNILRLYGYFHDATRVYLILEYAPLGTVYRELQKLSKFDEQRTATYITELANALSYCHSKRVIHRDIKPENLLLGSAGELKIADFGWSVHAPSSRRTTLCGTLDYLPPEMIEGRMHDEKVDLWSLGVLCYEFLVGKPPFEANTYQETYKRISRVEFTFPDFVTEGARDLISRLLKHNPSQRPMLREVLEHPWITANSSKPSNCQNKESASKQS
Test: AURKA degradation, Simple Western
Type: cell-based
Design: Representative Western blot showing levels of endogenous proteins MDR1, MYCN, AURKA, and CRBN in untreated cell lines; endogenous in cells; host or cells: NGP, IMR-32, SJNB-8, SK-N-BE(2)-C, SK-N-SH, SK-N-AS, SJNB-1, RPE, HEK293T
Conditions: AURKA degradation
assayReadout: pDC50

Observe how each entry below is paired with its result.
For this compound ( O=C1CCN(c2ccc(N3CCN(CC4CCN(C(=O)[C@]5(Cc6cccc(Nc7nccs7)n6)CC[C@@H](Oc6cccc(Cl)c6F)CC5)CC4)CC3)nc2)C(=O)N1 ), measured pDC50 is 8,23

Lab note: measured pDC50 of Cc1cc(Nc2ccc(F)c(CC3(C(=O)N4CCC(F)(CN5CCN(c6ccc(N7CCC(=O)NC7=O)cn6)CC5)CC4)CCN(Cc4cccc(Cl)c4F)CC3)n2)n[nH]1 was 8,68

Next, consider the following compound.
Field pDC50 (entry O=C1CCC(Nc2ccc(N3CCN(C(=O)CNC(=O)[C@]4(Cc5cccc(Nc6nccs6)n5)CC[C@@H](Oc5cccc(Cl)c5F)CC4)CC3)cc2)C(=O)N1 (stereo partly drawn) ) reads 7,36

----------
Documented hepatocyte CLint at 1 μM across a set of molecules
test: Metabolic stability in mouse hepatocytes (MH); format: in vitro ADME, CD-1 mouse; conditions: CD-1

O=C1CCN(Cc2ccc(C3CCN(C4CN(C(=O)[C@]5(Cc6cccc(Nc7nccs7)n6)CC[C@@H](Oc6cccc(Cl)c6F)CC5)C4)CC3)nc2)C(=O)N1 has a reported hepatocyte CLint at 1 μM of < 4.1 µL/min/1e6 cells

What the record says about O=C1CCN(Cc2ccc(C3CCN(CC4CCN(C(=O)[C@]5(Cc6cccc(Nc7nccs7)n6)CC[C@@H](Oc6cccc(Cl)c6F)CC5)CC4)CC3)nc2)C(=O)N1 : hepatocyte CLint at 1 μM is < 4.1 µL/min/1e6 cells

Note: attention shifts to another entry.
# molecule O=C1CCN(c2ccc(N3CCN(CC4CCN(C(=O)[C@]5(Cc6cccc(Nc7nccs7)n6)CC[C@@H](Oc6cccc(Cl)c6F)CC5)CC4)CC3)nc2)C(=O)N1 ; its hepatocyte CLint at 1 μM = < 4.1 µL/min/1e6 cells
